Tested on: PDC 899932-113-R3-J6 complex spheroid viability
Assay: Anticancer human tumor 899932-113-R3-J6-PDC patient-derived melanoma cell line growth inhibition [RAS]
Settings: second compound 3.16 µM; first compound 0.01 µM; active compounds read low
Item-by-item account of viability, T/C
measure: viability, T/C (%)

>>> observed("CCN1CCN(Cc2ccc(Nc3ncc(F)c(-c4cc(F)c5nc(C)n(C(C)C)c5c4)n3)nc2)CC1 + C#Cc1c(F)ccc2cc(O)cc(-c3ncc4c(N5CC6CCC(C5)N6)nc(OCC56CCCN5CC(F)C6)nc4c3F)c12")
112
>>> observed("C=CC(=O)Nc1cc(Nc2nccc(-c3cn(C)c4ccccc34)n2)c(OC)cc1N(C)CCN(C)C + C#Cc1c(F)ccc2cc(O)cc(-c3ncc4c(N5CC6CCC(C5)N6)nc(OCC56CCCN5CC(F)C6)nc4c3F)c12")
116
>>> observed("O=C(c1ccc(F)c(F)c1Nc1ccc(I)cc1F)N1CC(O)([C@@H]2CCCCN2)C1 + C#Cc1c(F)ccc2cc(O)cc(-c3ncc4c(N5CC6CCC(C5)N6)nc(OCC56CCCN5CC(F)C6)nc4c3F)c12")
53.1

* * *

Tested on: PDC 899932-113-R3-J6 complex spheroid viability
Experiment: Anticancer human tumor 899932-113-R3-J6-PDC cell line growth inhibition [RAS];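 also: spheroids exposed to agents for seven days before readout; 100% = DMSO vehicle control wells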
Conditions: second compound 0.01 µM; first compound 3.16 µM; active compounds read low
List of viability, T/C values.
measure: viability, T/C (%)

>>> observed("CC(Nc1ccc2c(c1)OCCn1cc(N3C(=O)OCC3C(F)F)nc1-2)C(N)=O (centres undefined) + C=CC(=O)N1CCN(c2nc(OCC3CCCN3C)nc3c(F)c(-c4nc(N)cc(C)c4C(F)(F)F)c(Cl)cc23)C(C)C1")
47.5
>>> observed("CC1(O)CCCC1n1c(=O)c(C(F)F)cc2cnc(NC3CCN(S(C)(=O)=O)CC3)nc21 (centres undefined) + C=CC(=O)N1CCN(c2nc(OCC3CCCN3C)nc3c(F)c(-c4nc(N)cc(C)c4C(F)(F)F)c(Cl)cc23)C(C)C1")
64.5
>>> observed("CC(C)NCC(C(=O)N1CCN(c2ncnc3c2C(C)CC3O)CC1)c1ccc(Cl)cc1 (centres undefined) + C=CC(=O)N1CCN(c2nc(OCC3CCCN3C)nc3c(F)c(-c4nc(N)cc(C)c4C(F)(F)F)c(Cl)cc23)C(C)C1")
60.9
>>> observed("CC(=O)OC12COC1CC(O)C1(C)C(=O)C(O)C3=C(C)C(OC(=O)C(O)C(NC(=O)OC(C)(C)C)c4ccccc4)CC(O)(C(OC(=O)c4ccccc4)C21)C3(C)C (centres undefined) + C=CC(=O)N1CCN(c2nc(OCC3CCCN3C)nc3c(F)c(-c4nc(N)cc(C)c4C(F)(F)F)c(Cl)cc23)C(C)C1")
49.5

* * *

Tested on: PDC 899932-113-R3-J6 complex spheroid viability
Test: Anticancer human tumor 899932-113-R3-J6-PDC cell line growth inhibition [RAS]; active = viability on the fitted dose curve at most 10% of control; inactive = the rest;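 also: spheroids exposed to agents for seven days before readout; 100% = DMSO vehicle control wells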
Settings: second compound 0.00949 µM; first compound 0.000949 µM
Outcomes: active, inactive

>>> label_class("CC1(C)CCC(Nc2ncc(C(F)(F)F)c(-c3c[nH]c4c(P(C)(C)=O)c(C#N)ccc34)n2)CN1 (centres undefined) + CCn1c(-c2cccnc2C(C)OC)c2c3cc(ccc31)N1CCOC(CC(NC(=O)C(C(C)C)N(C)C(=O)C3(F)CCN(C(=O)C#CC(C)(C)N(C)C)CC3)C(=O)N3CCCC(N3)C(=O)OCC(C)(C)C2)C1")
"inactive"
>>> label_class("CC1(C)CCC(Nc2ncc(C(F)(F)F)c(-c3c[nH]c4c(P(C)(C)=O)c(C#N)ccc34)n2)CN1 (centres undefined) + CCn1c(-c2cc(N3CCN(C)CC3)cnc2C(C)OC)c2c3cc(ccc31)-c1csc(n1)CC(NC(=O)C1CC1C)C(=O)N1CCCC(N1)C(=O)OCC(C)(C)C2")
"active"
>>> label_class("CCc1c2c(nc3ccc(O)cc13)-c1cc3c(c(=O)n1C2)COC(=O)[C@]3(O)CC + CCn1c(-c2cc(N3CCN(C)CC3)cnc2C(C)OC)c2c3cc(ccc31)-c1csc(n1)CC(NC(=O)C1CC1C)C(=O)N1CCCC(N1)C(=O)OCC(C)(C)C2")
"active"
>>> label_class("CCc1c2c(nc3ccc(O)cc13)-c1cc3c(c(=O)n1C2)COC(=O)[C@]3(O)CC + CCn1c(-c2cccnc2C(C)OC)c2c3cc(ccc31)N1CCOC(CC(NC(=O)C(C(C)C)N(C)C(=O)C3(F)CCN(C(=O)C#CC(C)(C)N(C)C)CC3)C(=O)N3CCCC(N3)C(=O)OCC(C)(C)C2)C1")
"inactive"

* * *

Test system: PDC 899932-113-R3-J6 complex spheroid viability
Test: Anticancer human tumor 899932-113-R3-J6-PDC cell line growth inhibition [RAS];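 also: spheroids exposed to agents for seven days before readout; 100% = DMSO vehicle control wells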
Details: second compound 0.0949 µM; first compound 0.1 µM; active compounds read low
measure: viability, T/C (%)

>>> observed("CCC(CC)c1cc(NC2CCC(N)C2)n2nccc2n1 (stereo not drawn) + CCn1c(-c2cc(N3CCN(C)CC3)cnc2C(C)OC)c2c3cc(ccc31)-c1csc(n1)CC(NC(=O)C1CC1C)C(=O)N1CCCC(N1)C(=O)OCC(C)(C)C2")
2.58
>>> observed("C=CC(=O)N1CCN(c2nc(OCC3CCCN3C)nc3c(F)c(-c4nc(N)cc(C)c4C(F)(F)F)c(Cl)cc23)C(C)C1 (stereo not drawn) + CCn1c(-c2cc(N3CCN(C)CC3)cnc2C(C)OC)c2c3cc(ccc31)-c1csc(n1)CC(NC(=O)C1CC1C)C(=O)N1CCCC(N1)C(=O)OCC(C)(C)C2")
1.94
>>> observed("CCN1CCN(Cc2ccc(Nc3ncc(F)c(-c4cc(F)c5nc(C)n(C(C)C)c5c4)n3)nc2)CC1 + CCn1c(-c2cc(N3CCN(C)CC3)cnc2C(C)OC)c2c3cc(ccc31)-c1csc(n1)CC(NC(=O)C1CC1C)C(=O)N1CCCC(N1)C(=O)OCC(C)(C)C2")
2.33
>>> observed("CC(C)n1nc(-c2ccc3oc(N)nc3c2)c2c(N)ncnc21 + CCn1c(-c2cccnc2C(C)OC)c2c3cc(ccc31)N1CCOC(CC(NC(=O)C(C(C)C)N(C)C(=O)C3(F)CCN(C(=O)C#CC(C)(C)N(C)C)CC3)C(=O)N3CCCC(N3)C(=O)OCC(C)(C)C2)C1")
93.1
>>> observed("CCN1CCN(Cc2ccc(Nc3ncc(F)c(-c4cc(F)c5nc(C)n(C(C)C)c5c4)n3)nc2)CC1 + CCn1c(-c2cccnc2C(C)OC)c2c3cc(ccc31)N1CCOC(CC(NC(=O)C(C(C)C)N(C)C(=O)C3(F)CCN(C(=O)C#CC(C)(C)N(C)C)CC3)C(=O)N3CCCC(N3)C(=O)OCC(C)(C)C2)C1")
73.1
>>> observed("NC1c2ccccc2OC12CCN(c1cnc3c(N4CCCc5ncccc54)n[nH]c3n1)CC2 (stereo not drawn) + CCn1c(-c2cccnc2C(C)OC)c2c3cc(ccc31)N1CCOC(CC(NC(=O)C(C(C)C)N(C)C(=O)C3(F)CCN(C(=O)C#CC(C)(C)N(C)C)CC3)C(=O)N3CCCC(N3)C(=O)OCC(C)(C)C2)C1")
102
>>> observed("CC(Nc1ccc2c(c1)OCCn1cc(N3C(=O)OCC3C(F)F)nc1-2)C(N)=O (stereo not drawn) + CCn1c(-c2cc(N3CCN(C)CC3)cnc2C(C)OC)c2c3cc(ccc31)-c1csc(n1)CC(NC(=O)C1CC1C)C(=O)N1CCCC(N1)C(=O)OCC(C)(C)C2")
1.18
>>> observed("C=CC(=O)Nc1cc(Nc2nccc(-c3cn(C)c4ccccc34)n2)c(OC)cc1N(C)CCN(C)C + CCn1c(-c2cccnc2C(C)OC)c2c3cc(ccc31)N1CCOC(CC(NC(=O)C(C(C)C)N(C)C(=O)C3(F)CCN(C(=O)C#CC(C)(C)N(C)C)CC3)C(=O)N3CCCC(N3)C(=O)OCC(C)(C)C2)C1")
105
>>> observed("CC1(O)CCCC1n1c(=O)c(C(F)F)cc2cnc(NC3CCN(S(C)(=O)=O)CC3)nc21 (stereo not drawn) + CCn1c(-c2cc(N3CCN(C)CC3)cnc2C(C)OC)c2c3cc(ccc31)-c1csc(n1)CC(NC(=O)C1CC1C)C(=O)N1CCCC(N1)C(=O)OCC(C)(C)C2")
2.7
>>> observed("CC(Nc1ccc2c(c1)OCCn1cc(N3C(=O)OCC3C(F)F)nc1-2)C(N)=O (stereo not drawn) + CCn1c(-c2cccnc2C(C)OC)c2c3cc(ccc31)N1CCOC(CC(NC(=O)C(C(C)C)N(C)C(=O)C3(F)CCN(C(=O)C#CC(C)(C)N(C)C)CC3)C(=O)N3CCCC(N3)C(=O)OCC(C)(C)C2)C1")
64.7
>>> observed("NC1c2ccccc2OC12CCN(c1cnc3c(N4CCCc5ncccc54)n[nH]c3n1)CC2 (stereo not drawn) + CCn1c(-c2cc(N3CCN(C)CC3)cnc2C(C)OC)c2c3cc(ccc31)-c1csc(n1)CC(NC(=O)C1CC1C)C(=O)N1CCCC(N1)C(=O)OCC(C)(C)C2")
1.61
>>> observed("C=CC(=O)Nc1cc(Nc2nccc(-c3cn(C)c4ccccc34)n2)c(OC)cc1N(C)CCN(C)C + CCn1c(-c2cc(N3CCN(C)CC3)cnc2C(C)OC)c2c3cc(ccc31)-c1csc(n1)CC(NC(=O)C1CC1C)C(=O)N1CCCC(N1)C(=O)OCC(C)(C)C2")
2.02
>>> observed("Nc1ccn(C2OC(CO)C(O)C2(F)F)c(=O)n1 (stereo not drawn) + CCn1c(-c2cccnc2C(C)OC)c2c3cc(ccc31)N1CCOC(CC(NC(=O)C(C(C)C)N(C)C(=O)C3(F)CCN(C(=O)C#CC(C)(C)N(C)C)CC3)C(=O)N3CCCC(N3)C(=O)OCC(C)(C)C2)C1")
20.5

The measurements presented in this section are drawn from PubChem BioAssay AID2060895.
